# EXPERIMENTAL PROTOCOL: Morpholine test: depression of partial vapour pressure of morpholine relative to Raoult's Law (headspace GC)
# TEST CONDITIONS: material 1 g + morpholine 0.25 g, 37° C., 30 minutes
Respond with Met for Raoult variance ratio (RVR) values of 1 and above, Not met for values below.

{"COMPOUND": "CCCCCCCC1CCCC1=O (centres unmarked)", "ASSIGNED CATEGORY": "Met"}
{"COMPOUND": "CC1(C)CCCC2(C)C1CCC1(C)OCCC12 (centres unmarked)", "ASSIGNED CATEGORY": "Met"}
{"COMPOUND": "O=c1ccc2ccccc2o1", "ASSIGNED CATEGORY": "Met"}
{"COMPOUND": "O=C(OCc1ccccc1)c1ccccc1O [Benzyl salicylate]", "ASSIGNED CATEGORY": "Met"}

Please indicate if the recorded Raoult variance ratio (RVR) for CC(=O)OC1CCCCC1C(C)(C)C (centres unmarked) [o-t-Butylcyclohexyl acetate] meets or exceeds 1.
Met

Check this compound for Raoult variance ratio (RVR) at or above 1: CC(C)CCOC(=O)c1ccccc1O [iso-Amyl salicylate]
Met

Please tell me: is the compound CC(=O)c1ccc2ccccc2c1 at or over 1 in terms of Raoult variance ratio (RVR)?
Not met

Please tell me: is the compound CCOC(=O)c1ccccc1C(=O)OCC [Diethyl phthalate] at or over 1 in terms of Raoult variance ratio (RVR)?
Met

Decide: Raoult variance ratio (RVR) of OCCc1ccccc1 >= 1?
Met

Entry CCCCCC1CCC(=O)O1 (centres unmarked) [Nonanolide-1:4] : is its Raoult variance ratio (RVR) no less than 1?
Not met

* * *

Reported Raoult variance ratio (RVR) values for a set of molecules
# EXPERIMENTAL PROTOCOL: Morpholine test: depression of partial vapour pressure of morpholine relative to Raoult's Law (headspace GC)
# TEST CONDITIONS: material 1 g + morpholine 0.25 g, 37° C., 30 minutes
Form field (numeric): enter value without unit.

{"MOLECULE": "Cc1ccc(C(C)C)cc1O", "MEASURE": "Raoult variance ratio (RVR)", "ENDPOINT VALUE": 1.43}

Reported Raoult variance ratio (RVR) for C/C=C\c1ccc(O)c(OC)c1 : what is it?
1.48

Quick check: Raoult variance ratio (RVR) of CCCCCCC(CCOC(C)=O)OC(C)=O (centres unmarked) [Nonanediol-1,3-diacetate] ?
1.17

// returns reported Raoult variance ratio (RVR) for input CCC(C)(C)C1CCC(=O)CC1
1.10

What value of measured Raoult variance ratio (RVR) is listed for CCOc1cc(C=O)ccc1O ?
1.43
